This document collects MIC values reported for Salmonela typhimlium LT-2.

COMPOUND: NC[C@H]1O[C@H](O[C@H]2[C@H](O)[C@@H](O[C@H]3O[C@H](CO)[C@@H](O)[C@H](N)[C@H]3O)[C@H](N)C[C@@H]2N)[C@H](O)[C@@H](O)[C@@H]1O [Kanamycin A, kanamycin A, reference compound]
MIC (µg/mL): 1.56
--
COMPOUND: NC[C@H]1O[C@H](O[C@H]2[C@H](O)[C@@H](O[C@H]3O[C@H](CO)[C@@H](O)[C@H](N)[C@H]3O)[C@H](N)C[C@@H]2N)C[C@@H](O)[C@@H]1O
MIC (µg/mL): 0.78
--
COMPOUND: NC[C@H]1O[C@H](O[C@H]2[C@H](O)[C@@H](O[C@H]3O[C@H](CO)[C@@H](O)[C@H](N)[C@H]3O)[C@H](N)C[C@@H]2N)[C@@H](O)[C@@H](O)[C@@H]1O [2'-Epikanamycin A, 2'-epikanamycin A]
MIC (µg/mL): 6.25
--
COMPOUND: NC[C@H]1O[C@H](O[C@H]2[C@H](O)[C@@H](O[C@H]3O[C@H](CO)[C@@H](O)[C@H](N)[C@H]3O)[C@H](N)C[C@@H]2N)[C@@H](N)[C@@H](O)[C@@H]1O [2'-Epikanamycin B, 2'-epikanamycin B]
MIC (µg/mL): 50
